// provenance: ChEMBL document CHEMBL1145363

# Measurement protocol: Half life in human liver microsome
# Type: ADME
# Measurement setup: liver microsomes
Readout kind: half-life (min)

Smiles structure | half-life (min)
CCc1nc(N)nc(N)c1-c1ccc2c(c1)N(CCC(=O)OC)CCC2 | 5
CCc1nc(N)nc(N)c1-c1ccc2c(c1)N(CCCCC(=O)OC)CCC2 | 5
CCc1nc(N)nc(N)c1-c1ccc2c(c1)N(CCCC(=O)OC)CCC2 | 5

----------
# Measurement protocol: Plasma clearance in Sprague-Dawley rat
# Type: ADME, organism-based
Readout kind: clearance (mL/min/kg)
# unit: mL/min/kg | format: bare number

For `CCc1nc(N)nc(N)c1-c1ccc2c(c1)N(CCCOC)CCC2` , what is its reported clearance? 36.8

----------
Target chain: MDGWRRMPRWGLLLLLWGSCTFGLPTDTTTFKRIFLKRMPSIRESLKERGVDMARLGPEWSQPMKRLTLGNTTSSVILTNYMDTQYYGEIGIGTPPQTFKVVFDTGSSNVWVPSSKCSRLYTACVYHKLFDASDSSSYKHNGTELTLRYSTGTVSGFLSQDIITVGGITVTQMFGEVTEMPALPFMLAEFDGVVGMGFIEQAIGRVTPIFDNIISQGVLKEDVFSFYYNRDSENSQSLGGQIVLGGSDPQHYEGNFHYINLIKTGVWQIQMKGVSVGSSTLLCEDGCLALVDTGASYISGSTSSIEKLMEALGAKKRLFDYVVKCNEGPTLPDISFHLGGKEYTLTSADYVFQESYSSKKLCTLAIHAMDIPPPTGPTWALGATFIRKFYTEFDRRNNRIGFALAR
pIC50: −log10 of the molar value.
Readout kind: pIC50

Smiles structure | pIC50
CCc1nc(N)nc(N)c1-c1ccc2c(c1)N(CCNC(C)=O)CCC2 | 6.75

P = CCc1nc(N)nc(N)c1-c1ccc2c(c1)N(CCC(=O)OC)CCC2
Q = CCc1nc(N)nc(N)c1-c1ccc2c(c1)N(CCCOC)CCC2
R = CCc1nc(N)nc(N)c1-c1ccc(NCc2ccc(Cl)c(Cl)c2)cc1
Sort by pIC50, descending. Arrange the labels as the request states and list them. P, Q, R
(P: 6.70, Q: 6.19, R: 4.57)

----------
# Measurement protocol: Volume of distribution in Sprague-Dawley rat
# Type: ADME, organism-based
# Measurement setup: in vivo, read-out: Vdss
Readout kind: Vd (L/kg)
# unit: L/kg | format: bare number

For `CCc1nc(N)nc(N)c1-c1ccc2c(c1)N(CCCOC)CCC2` , what is its reported Vd? 1.6

----------
# Assay target: Cytochrome P450 3A4 (Homo sapiens)
# Sequence (P08684 whole entry): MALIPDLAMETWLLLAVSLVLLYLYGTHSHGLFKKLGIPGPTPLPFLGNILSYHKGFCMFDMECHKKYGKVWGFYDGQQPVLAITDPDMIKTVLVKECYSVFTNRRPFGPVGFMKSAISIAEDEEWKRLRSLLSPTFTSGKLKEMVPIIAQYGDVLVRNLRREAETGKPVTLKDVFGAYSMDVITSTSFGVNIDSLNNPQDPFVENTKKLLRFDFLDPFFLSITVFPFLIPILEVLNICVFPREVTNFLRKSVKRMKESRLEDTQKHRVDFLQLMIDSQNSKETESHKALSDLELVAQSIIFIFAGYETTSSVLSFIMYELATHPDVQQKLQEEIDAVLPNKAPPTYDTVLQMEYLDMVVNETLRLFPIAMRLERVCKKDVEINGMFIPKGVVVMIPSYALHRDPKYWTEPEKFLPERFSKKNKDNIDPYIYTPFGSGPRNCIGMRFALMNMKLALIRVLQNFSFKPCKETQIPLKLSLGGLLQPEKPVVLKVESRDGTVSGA
# Measurement protocol: Inhibition of CYP3A4
# Assay type: ADME
pIC50: −log10 of the molar value.
Readout kind: pIC50

Smiles structure | pIC50
CCc1nc(N)nc(N)c1-c1ccc2c(c1)N(CCC(=O)OC)CCC2 | 5.00
CCc1nc(N)nc(N)c1-c1ccc2c(c1)N(CCNC(C)=O)CCC2 | 5.10

----------
# Measurement protocol: Solubility of the compound
# Format: physicochemical
Readout kind: solubility (mg/mL)
# unit: mg/mL | format: bare number

For `CCc1nc(N)nc(N)c1-c1ccc2c(c1)N(CCCOC)CCC2` , what is its reported solubility? 0.0593
